molecular target: T1, alpha-conotoxin MI (CTX-MI) (Conus magus, UniProt P01521 1-14, disulfide (positions not given here); not fully specified; also: two disulfides as in P01521); experiment: BLI; details: protein: commercial; tags: none; label: biotin; remaining predicted GQ cores C,D
T1 chain: GRCCHPACGKNYSC-NH2
Where no end group is shown, it is not given here.
Measured endpoint: Kd (nM)

# Binder, Measured result
rows = [
    ("TTTCCGGATGGGCAACGGTAAAAAGGGTCAAAAGGCTTTT (ssDNA) [M1]", 1520),
]
